Below is a list of entries, each paired with its recorded combination Emax value.
Test system: Mewo (Melanoma)
method-description: combination Emax (second highest fraction inhibited in the dose matrix, 72 h); higher = more inhibition; extreme values may be limits of the assay
readout-kind: combination Emax

>>> experimental_value("C[C@@H](Oc1cc(-c2cnn(C3CCNCC3)c2)cnc1N)c1c(Cl)ccc(F)c1Cl [Crizotinib] + CC1=C(C(=CC=C1)Cl)NC(=O)C2=CN=C(S2)NC3=CC(=NC(=N3)C)N4CCN(CC4)CCO [Dasatinib] (first compound max 10 µM, 7x7, partner max 2 µM)")
0.481
>>> experimental_value("CCc1c2c(nc3ccc(O)cc13)-c1cc3c(c(=O)n1C2)COC(=O)[C@]3(O)CC [SN-38] + O=C(c1cc(Cc2n[nH]c(=O)c3ccccc23)ccc1F)N1CCN(C(=O)C2CC2)CC1 [Olaparib] (first compound max 0.3 µM, 7x7, partner max 10 µM)")
0.338
>>> experimental_value("C[C@@H]1COCCN1c1cc(C2([S@](C)(=N)=O)CC2)nc(-c2ccnc3[nH]ccc23)n1 [AZD6738] + Nc1ccn([C@@H]2O[C@H](CO)[C@@H](O)C2(F)F)c(=O)n1 [Gemcitabine] (first compound max 10 µM, 7x7, partner max 0.3 µM)")
0.768
>>> experimental_value("N#Cc1cnc(Nc2cc(NC[C@H]3CNCCO3)c(C(F)(F)F)cn2)cn1 [SRA737] + O=c1[nH]cc(F)c(=O)[nH]1 [5-Fluorouracil] (first compound max 10 µM, 7x7, partner max 20 µM)")
0.38
